EXPERIMENTAL DETAILS: Human HepG2 cell viability assay in 384 well format
Type: toxicity, cell-based
Parameters: dose 125 nL, time 70.5 hour; concentration not given beside the values
TEST CONTEXT: HepG2 cells, read-out: Inhibition
Listed here: items and their measured cytotoxicity at 70.5 h.
# number then unit; no other words

COMPOUND | VALUE REPORTED
Cc1nccn1-c1ccc(CNS(=O)(=O)N2CCC(C)CC2)cn1 | 25.9%
COc1cc(CCC(=O)N2CCC(c3cc4ncc(C)nc4[nH]3)C2)on1 (centres undefined) | 19.5%
COc1ccc(-c2cc(CN)nc3ccnn23)cc1 | -12.4%

Consider the additional compound presented here.
For record CN(C)Cc1cccc(C(=O)N2CCCC(n3cncn3)C2)c1 (centres undefined) the listed cytotoxicity at 70.5 h is -12.1%
